- SYSTEM: RTCA (UniProt O00442)
- Sequence: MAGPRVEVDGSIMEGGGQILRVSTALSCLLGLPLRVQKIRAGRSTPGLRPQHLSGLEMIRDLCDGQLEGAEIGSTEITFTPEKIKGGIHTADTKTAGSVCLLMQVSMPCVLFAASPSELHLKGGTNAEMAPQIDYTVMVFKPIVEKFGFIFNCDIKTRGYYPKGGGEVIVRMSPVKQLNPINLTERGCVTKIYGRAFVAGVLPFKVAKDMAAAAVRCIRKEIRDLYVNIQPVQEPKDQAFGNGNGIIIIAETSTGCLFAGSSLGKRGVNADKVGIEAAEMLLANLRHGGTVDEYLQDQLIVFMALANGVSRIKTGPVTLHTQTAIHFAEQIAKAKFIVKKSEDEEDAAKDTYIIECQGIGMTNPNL
- PROTOCOL SUMMARY: Kd (EC50 corrected by depletion factor)
OBSERVATION TYPE: Kd (nM)
Provide the reading as a plain figure in nM.

Consider the worked cases shown below.
sequence_input=UAUUUAU unit_spec=nM endpoint_value=273
sequence_input=CUGUCCU unit_spec=nM endpoint_value=990

Then there is this sequence:
Report value only: Kd, RTCA (UniProt O00442), AAUAAA
81.1
